We begin with IC50 values for MAT2A (Homo sapiens, UniProt P31153), as collected from the published literature.

Look over these answered cases.
[[record]]
chem_smiles = "CNc1c(-c2ccc3ncn(C)c3c2)c(=O)n(-c2ccccc2)c2nc(C(F)(F)F)ccc12"
obs_value = "17.5 nM"

[[record]]
chem_smiles = "Nc1c(-c2ccc3c(c2)OCO3)c(=O)n(-c2ccc(Br)cc2)c2nc(C(F)(F)F)ccc12"
obs_value = "15.9 nM"

[[record]]
chem_smiles = "NC/C=C/CNc1nc(=O)n(-c2cccnc2)c2cc(C(F)(F)F)ccc12"
obs_value = "100 to 500 nM"

[[record]]
chem_smiles = "C#CCNc1nc(=O)n(-c2cccnc2)c2nc(C(F)(F)F)ccc12"
obs_value = "< 50 nM"

[[record]]
chem_smiles = "C=CCNc1nc(=O)n(-c2cccnc2)c2cc(C(F)(F)F)ccc12"
obs_value = "< 50 nM"

[[record]]
chem_smiles = "C#CCNc1nc(=O)n(-c2cccnc2C)c2cc(Cl)cc(F)c12"
obs_value = "< 50 nM"

[[record]]
chem_smiles = "CCOc1c(-c2ccc(Cl)cc2)c(=O)n(-c2ccc3nn(C)cc3c2)c2nn(CCO)cc12"
obs_value = "27.7 nM"


# evaluate next
Ask: Endpoint output: IC50 of "Cc1ccc(-n2c(=O)c(-c3ccn4ncnc4c3)c(N)c3ccc(C(F)(F)F)nc32)cc1" . Value?
Result: 16.9 nM

----------
pIC50: −log10 of the molar value.
We begin with pIC50 values for MAT2A (Homo sapiens), as collected from the published literature.

Look over these answered cases.
[[record]]
compound = "C#CC(C)Nc1nc(=O)n(-c2cccnc2)c2cc(C(F)(F)F)ccc12 (stereo not shown)"
property_label = "pIC50"
obs_value = "> 7.30"

[[record]]
compound = "Nc1c(-c2ccc3cccnc3c2)c(=O)n(-c2ccc(Cl)cc2)c2nc(C(F)(F)F)ccc12"
property_label = "pIC50"
obs_value = 7.29


Ask: Endpoint output: pIC50 of "C#CC1CCN(c2nc(=O)n(-c3ccccc3Cl)c3cc(Cl)ccc23)CC1" . Value?
Result: < 6.00

Ask: // repeat for "O=c1c(-c2ccc3c(c2)OCO3)cn2ccc(C3CC3)nc2c1-c1ccc2c(c1)OCO2" and report
Result: > 7.30

----------
We begin with IC50 values for MAT2A (Homo sapiens, UniProt P31153), as collected from the published literature.

Look over these answered cases.
[[record]]
molecule = "C#CC(C)Nc1nc(=O)n(-c2cccnc2)c2cc(Cl)cc(OC)c12 (centres unmarked)"
property_label = "IC50"
obs_value = "< 50 nM"

[[record]]
molecule = "C#CC1(Nc2nc(=O)n(-c3cccnc3C)c3cc(C(F)(F)F)cc(OC(F)F)c23)CC1"
property_label = "IC50"
obs_value = "50 to 100 nM"

[[record]]
molecule = "C#CCNc1nc(=O)n(-c2cccnc2C)c2cc(C(F)(F)F)cc(OC(F)F)c12"
property_label = "IC50"
obs_value = "< 50 nM"


# evaluate next
Ask: Endpoint output: IC50 of "Cn1c(N)nc2ccc(-c3c(N)c4ccc(C(F)(F)F)nc4n(-c4ccc(Cl)cc4)c3=O)cc21" . Value?
Result: 20.2 nM

----------
pIC50: −log10 of the molar value.
We begin with pIC50 values for MAT2A (Homo sapiens, UniProt P31153), as collected from the published literature.

Look over these answered cases.
[[record]]
chem_smiles = "O=c1ccn2cc(-c3ccc(OC(F)F)cc3)c(=O)c(-c3ccc(OC(F)F)cc3)c2[nH]1"
obs_value = "< 6.00"

[[record]]
chem_smiles = "C#CC1(Nc2nc(=O)n(-c3cccnn3)c3nc(C(F)(F)F)ccc23)CC1"
obs_value = "> 7.30"

[[record]]
chem_smiles = "Nc1c(-c2ccc3ncncc3c2)c(=O)n(-c2ccc(Cl)cc2)c2nc(C(F)(F)F)ccc12"
obs_value = 7.82

[[record]]
chem_smiles = "COCCOc1c(-c2ccc(Cl)cc2)c(=O)n(-c2ccc3nn(C)cc3c2)c2[nH]ncc12"
obs_value = 7.85


Ask: Endpoint output: pIC50 of "CCOc1c(-c2ccc(Cl)cc2)c(=O)n(-c2ccc3nnn(C)c3c2)c2nn(C)cc12" . Value?
Result: 7.89

Ask: // repeat for "Nc1c(-c2ccc3nccnc3n2)c(=O)n(-c2ccc(Cl)cc2)c2nc(C(F)(F)F)ccc12" and report
Result: 7.74

Ask: // repeat for "C#CCNc1nc(=O)n(-c2cccnc2)c2cc(C(F)(F)F)cnc12" and report
Result: 6.00 to 6.30

Ask: // repeat for "C#CC1(Nc2nc(=O)n(-c3cccnc3C)c3cc(Cl)cc(OC)c23)CCC1" and report
Result: > 7.30

Ask: // repeat for "C#CCNc1nc(=O)n(-c2cncnc2)c2cc(Cl)ccc12" and report
Result: 6.30 to 7.00

Ask: // repeat for "N#Cc1ccc(-c2c(N)c3ccc(C(F)(F)F)nc3n(-c3ccc(Cl)cc3)c2=O)cc1" and report
Result: 7.58

Ask: // repeat for "CCOc1c(-c2cnc(C(F)(F)F)nc2)c(=O)n(-c2ccc3nn(C)cc3c2)c2[nH]ncc12" and report
Result: 7.74
